Attribution: patent US20250019385A1

target: KRAS (G12C)::SOS1 protein-protein interaction (Homo sapiens (Human), UniProt P01116, C118S/C51S/C80L/G12C); assay: KRAS::SOS1 AlphaScreen binding assay (KRAS G12C); conditions: GDP
Sequence (P01116 other isoform, or with tags, fused parts or gaps G12C/C51S/C80L/C118S): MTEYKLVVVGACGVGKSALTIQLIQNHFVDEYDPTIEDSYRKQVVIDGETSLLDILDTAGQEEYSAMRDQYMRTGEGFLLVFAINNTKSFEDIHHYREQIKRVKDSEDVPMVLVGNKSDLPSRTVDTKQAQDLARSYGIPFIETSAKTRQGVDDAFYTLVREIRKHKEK
parameterMeasured: pIC50
Units for pIC50: none; it is -log10 of a concentration expressed in mol/L.

Lookup: What value of pIC50 has been reported for the following compound? C[C@H](Oc1nc(-c2onc3c2CCC[C@@]32CCCc3sc(N)c(C#N)c32)nc2c1n(C)c(=O)n2[C@@H]1CCOC1)[C@@H]1[C@H](F)CCN1C
Found: 8.70

Lookup: What value of pIC50 has been reported for the following compound? CCn1c(=O)n([C@@H]2CCCOC2)c2nc(-c3onc4c3CCC[C@@]43CCCc4sc(N)c(C#N)c43)nc(OCC34CCCN3CCC4)c21
Found: 8.22

Lookup: What value of pIC50 has been reported for the following compound? CCn1c(=O)n([C@@H]2CCCOC2)c2nc(-c3onc4c3CCC[C@@]43CCCc4sc(N)c(C#N)c43)nc(OCC3(CN4CCCC4)CC3)c21
Found: 8.70

Lookup: What value of pIC50 has been reported for the following compound? C[C@H](Oc1nc(-c2onc3c2CCC[C@@]32CCCc3sc(N)c(C#N)c32)nc2c1n(C)c(=O)n2[C@H]1CC2CCC1O2)[C@@H]1CCCN1C (stereo partly drawn)
Found: 8.70

Lookup: What value of pIC50 has been reported for the following compound? C[C@H](Oc1nc(-c2noc3c2CCC[C@@]32CCCc3sc(N)c(C#N)c32)nc2c1COC[C@@]21CCOC1)[C@@H]1CCCN1C
Found: 8.70

Now let's try a different one.
Lookup: What value of pIC50 has been reported for the following compound? C[C@@H]1COC[C@H](n2c(=O)n(C)c3c(O[C@@H](C)[C@@H]4CCCN4C)nc(-c4onc5c4CCC[C@@]54CCCc5sc(N)c(C#N)c54)nc32)C1
Found: 8.70
